Tested on: COG-LL-319h;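 further: ALL cell lines in 384-well plates, five doses spanning 10,000-fold, each plate scaled between vehicle and 100 µmol/L benzalkonium chloride controls, sDSS an adapted area-under-curve metric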
Procedure summary: selective drug sensitivity score (sDSS, relative to normal bone marrow) (sDSS (score)); higher = more potent and effective on the cell line relative to normal bone marrow cells
Conditions: 72 h
Listed here are molecules together with their documented selective drug sensitivity score.
Measurement label: selective drug sensitivity score

[[record]]
molecule = "CC(C)N(C[C@H]1O[C@@H](n2cnc3c(N)ncnc32)[C@H](O)[C@@H]1O)[C@H]1C[C@@H](CCc2nc3cc(C(C)(C)C)ccc3[nH]2)C1 [Pinometostat] (top concentration 1000 nM)"
measurement_label = "selective drug sensitivity score"
observed = 0

[[record]]
molecule = "N#Cc1ccc2[nH]c(O)c(-c3ccc(CN4CCOCC4)cn3)c2c1 [AZD-1080] (top concentration 10000 nM)"
measurement_label = "selective drug sensitivity score"
observed = 6.28

[[record]]
molecule = "COc1cc2nccc(Oc3ccc(NC(=O)C4(C(=O)Nc5ccc(F)cc5)CC4)cc3)c2cc1OC [Cabozantinib] (top concentration 1000 nM)"
measurement_label = "selective drug sensitivity score"
observed = -2.22

